target: BRD4-BD1 (Homo sapiens (Human), UniProt O60885); experiment: BRD4 AlphaScreen assay, BRD4-BD1; details: biotin-labeled tetra-acetylated histone H4 peptide, 75 min, room temperature, read-out: BRD4 BD-1 enzyme IC50
Counter-ions that a name gives are not always drawn.
Measured IC50 of individual entries

- compound: "Cc1cc2c(cc(NC(N)=O)c3nnc(C)n32)n1Cc1ccc(F)c(F)c1 [Example 234]"
  IC50: "≤ 100 nM"
- compound: "Cc1cc2c(cc(Nc3ccccn3)c3nnc(C)n32)n1Cc1ccccc1 [Example 240]"
  IC50: "≤ 100 nM"
- compound: "CCNC(=O)c1cc2c(ccc3nnc(C)n32)n1Cc1cccc(CN2CCC2)c1 [Example 121, bis(trifluoroacetate) Salt]"
  IC50: "≤ 100 nM"

The value of IC50 measured for the compound Cc1nnc2ccc3c(cc(-c4ccn(C5CN(CCO)C5)n4)n3Cc3cccc(Cl)c3)n12 [Example 179, bis(trifluoroacetate) Salt] turned out to be ≤ 100 nM

The value of IC50 measured for the compound Cc1cc2c(cc(NC3CCN(C(=O)OC(C)(C)C)CC3)c3nnc(C)n32)n1Cc1ccccc1 [Example 214] turned out to be 100 to 1000 nM

The value of IC50 measured for the compound Cc1cc2c(ccc3nnc(C)n32)n1Cc1ccc(O)cc1 [Example 35] turned out to be ≤ 100 nM

The value of IC50 measured for the compound Cc1nnc2ccc3c(cc(-c4ccn(CCCO)n4)n3Cc3cccc(Cl)c3)n12 [Example 173, Trifluoroacetate Salt] turned out to be ≤ 100 nM

The value of IC50 measured for the compound Cc1nnc2ccc3c(cc(C#N)n3Cc3ccccc3)n12 [Example 227, Trifluoroacetate Salt] turned out to be ≤ 100 nM
